Assay: In vivo PBPK compartment modelling of dynamic whole-body PET data
Parameters: species or system mice
Conditions: after cyclosporine administration; kBG fitted
attribute.measured: average CLH when kBG was fitted (µL/min)
Give bare numbers, in µL/min.

May I ask what average CLH when kBG was fitted has been recorded for [11CH3]N1CCC(NC(=O)c2ccc(-n3[nH]c4c(c(-c5cccc(C(F)(F)F)c5)nc5c(F)cccc54)c3=O)cc2)CC1 [[^11C]MT107] ?
9.3

---

Experiment: In vivo PBPK compartment modelling of dynamic whole-body PET data
Design: species or system mice
Conditions: cyclosporine group; kBG fitted
attribute.measured: calculated transintestinal clearance (µL/min)
Numbers only, in µL/min.

May I ask what calculated transintestinal clearance has been recorded for [11CH3]N1CCC(NC(=O)c2ccc(-n3[nH]c4c(c(-c5cccc(C(F)(F)F)c5)nc5c(F)cccc54)c3=O)cc2)CC1 [[^11C]MT107] ?
7.8

---

Assay: In vivo PBPK compartment modelling of dynamic whole-body PET data
Set-up: species or system mice
Conditions: control; kBG fitted
Description: C(t) of liver, kidneys, and peripheral tissue and A(t) of gallbladder and intestines were derived from manually drawn volumes of interest according to the PET/CT images, using the VOI functions of PMOD. […] The volume of the “peripheral tissue” (VTissue) with C(t) determined from the left shoulder was estimated during the fitting procedure. […] Figure 2 Model for the pharmacokinetic analysis. […] Several models were evaluated and the results were visually inspected. […]
attribute.measured: average CLH when kBG was fitted (µL/min)
Answers are plain numbers, in µL/min.

May I ask what average CLH when kBG was fitted has been recorded for [11CH3]N1CCC(NC(=O)c2ccc(-n3[nH]c4c(c(-c5cccc(C(F)(F)F)c5)nc5c(F)cccc54)c3=O)cc2)CC1 [[^11C]MT107] ?
25.4
